# Target System: T1, mouse CB1 (mouse, UniProt P47746 1-473)
# T1 construct: also called muCB1; murine CB1
# T1 sequence (P47746 whole entry): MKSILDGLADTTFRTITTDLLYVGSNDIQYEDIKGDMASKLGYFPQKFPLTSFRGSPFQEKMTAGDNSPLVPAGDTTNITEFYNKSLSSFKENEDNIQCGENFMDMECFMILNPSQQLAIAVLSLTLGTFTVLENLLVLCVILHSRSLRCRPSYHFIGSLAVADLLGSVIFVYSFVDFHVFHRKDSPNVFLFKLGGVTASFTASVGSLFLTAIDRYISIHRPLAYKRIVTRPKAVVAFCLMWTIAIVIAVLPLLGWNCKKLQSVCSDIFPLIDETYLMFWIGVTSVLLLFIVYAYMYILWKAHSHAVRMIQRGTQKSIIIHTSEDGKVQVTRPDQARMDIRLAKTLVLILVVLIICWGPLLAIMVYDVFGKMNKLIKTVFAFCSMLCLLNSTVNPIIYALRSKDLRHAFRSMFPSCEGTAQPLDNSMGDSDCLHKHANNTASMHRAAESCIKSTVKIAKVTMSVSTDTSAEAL
# Test: binding to muCB1, fold over mock (method not described)

Binder	Fold over mock / fold
LIBC527814-1 (antibody, IgG1, V domains shown) VH: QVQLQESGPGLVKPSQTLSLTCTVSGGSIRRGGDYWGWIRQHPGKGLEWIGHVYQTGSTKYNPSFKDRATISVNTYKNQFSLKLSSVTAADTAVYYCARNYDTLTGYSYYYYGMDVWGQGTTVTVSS VL: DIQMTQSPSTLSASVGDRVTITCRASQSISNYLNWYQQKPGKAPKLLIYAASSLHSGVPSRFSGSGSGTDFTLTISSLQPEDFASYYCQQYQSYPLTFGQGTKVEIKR	1.2
LIBC527997-1 (antibody, IgG1, V domains shown) VH: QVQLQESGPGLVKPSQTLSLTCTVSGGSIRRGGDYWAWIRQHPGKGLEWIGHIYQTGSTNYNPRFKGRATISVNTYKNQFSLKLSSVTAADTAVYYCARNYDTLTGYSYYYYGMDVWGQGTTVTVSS VL: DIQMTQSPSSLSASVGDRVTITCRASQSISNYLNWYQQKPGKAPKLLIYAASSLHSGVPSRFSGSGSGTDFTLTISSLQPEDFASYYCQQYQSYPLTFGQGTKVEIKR	1
LIBC527919-1 (antibody, IgG1, V domains shown) VH: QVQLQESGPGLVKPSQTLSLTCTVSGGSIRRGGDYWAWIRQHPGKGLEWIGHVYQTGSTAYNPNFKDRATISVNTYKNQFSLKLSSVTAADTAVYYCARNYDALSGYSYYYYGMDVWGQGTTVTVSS VL: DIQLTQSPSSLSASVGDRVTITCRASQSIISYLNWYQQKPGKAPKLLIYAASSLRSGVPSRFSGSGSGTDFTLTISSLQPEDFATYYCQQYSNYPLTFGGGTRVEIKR	1
LIBC523661-1 (antibody, IgG1, V domains shown) VH: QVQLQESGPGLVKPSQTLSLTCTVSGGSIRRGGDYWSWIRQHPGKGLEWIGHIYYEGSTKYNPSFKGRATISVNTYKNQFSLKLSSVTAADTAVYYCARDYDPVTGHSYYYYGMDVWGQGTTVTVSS VL: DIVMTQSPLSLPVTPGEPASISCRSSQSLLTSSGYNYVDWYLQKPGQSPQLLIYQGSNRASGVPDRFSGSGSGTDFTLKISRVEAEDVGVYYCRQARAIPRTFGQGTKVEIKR	0.7

All values here come from patent US20250277029A1.
